Experiment: Pharmacokinetic properties in rats
Assay type: in vivo
Details: rat, in vivo, iv, I.V (1mg/kg)
Procedure: To further investigate the effect of CHMFL-EGFR-26 in vivo, we first examined its pharmacokinetic properties in rats (Supplementary Table 5). The half-life is 0.8 hour by oral dosing which is short but considering the irreversible binding mode, this short half-life was preferred. […]
Experimental Endpoint: Tmax

C=CC(=O)N1CCC[C@@H](n2nc(-c3ccc(OCc4cccc(C)n4)c(Cl)c3)c3c(N)ncnc32)C1
1.02 min

###

assay: Pharmacokinetic properties in rats; assay type: in vivo; details: rat, in vivo, po, P.O. (10mg/kg)
Experimental Endpoint: Cmax (ng/mL)

C=CC(=O)N1CCC[C@@H](n2nc(-c3ccc(OCc4cccc(C)n4)c(Cl)c3)c3c(N)ncnc32)C1
5210

Reference source: paper PMC5392334
